Source: paper PMC5716069

Molecular target: T1, Loqs-PDΔNC (Drosophila melanogaster, UniProt Q9VJY9-4 129-322)
T1 sequence: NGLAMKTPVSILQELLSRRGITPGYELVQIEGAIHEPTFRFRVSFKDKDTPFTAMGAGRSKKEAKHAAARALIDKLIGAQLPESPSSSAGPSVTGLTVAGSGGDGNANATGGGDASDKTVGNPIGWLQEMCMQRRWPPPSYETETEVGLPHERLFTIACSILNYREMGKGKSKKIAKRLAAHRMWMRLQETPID
Assay: fluorescence anisotropy
binders and their reported pKd
// pKd here means minus log10 of the molar concentration (mol/L)

# example entries with known answers
35 nt dsRNA, FITC (dsRNA, 5'-phosphate) RNA 1: GAUUCAUACAAGUGAGAUCAUUUUGAAAGCUGAUU RNA 2: UCAGCUUUCAAAAUGAUCUCACUUGUAUGAAUCAA: 7.07
ban-siRNA, FITC (dsRNA, 5'-phosphate) RNA 1: UGAGAUCAUUUUGAAAGCUGAUU RNA 2: UCAGCUUUCAAAAUGAUCUCACU: 7.09
bantam miRNA/miRNA*, FITC (dsRNA, 5'-phosphate) RNA 1: UGAGAUCAUUUUGAAAGCUGAUU RNA 2: UCGGUUUUCGAUUUGGUUUGACU: 7.01

Please examine the following record next.
Ask: Query (binder): 14 nt RNA, FITC (dsRNA, 5'-phosphate) RNA 1: UGAGAUCAUUUUGA RNA 2: UCAAAAUGAUCUCAUU ; field requested: pKd
Reply: 6.89
